Let's go through some Kd measurements on FKBP12 (Homo sapiens, UniProt P62942) together.
Sequence (P62942 whole entry, species assumed): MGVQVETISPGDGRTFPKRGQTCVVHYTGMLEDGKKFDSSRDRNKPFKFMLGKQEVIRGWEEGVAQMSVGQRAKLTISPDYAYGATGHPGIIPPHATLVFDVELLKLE

### Prompt Would you mind telling me what Kd value was observed for CO[C@@H]1C[C@H](C[C@@H](C)[C@@H]2CC(=O)[C@H](C)/C=C(\C)[C@@H](O)[C@@H](OC)C(=O)[C@H](C)C[C@H](C)/C=C/C=C/C=C(\C)[C@@H](OC3COC3)C[C@@H]3CC[C@@H](C)[C@@](O)(O3)C(=O)C(=O)N3CCCC[C@H]3C(=O)O2)CC[C@H]1O [Compound 523] ?
### Response < 0.3 nM

### Prompt Entry COCCO[C@H]1C[C@@H]2CC[C@@H](C)[C@@](O)(O2)C(=O)C(=O)N2CCCC[C@H]2C(=O)O[C@H]([C@H](C)C[C@@H]2CC[C@@H](OCCCO)[C@H](OC)C2)CC(=O)[C@H](C)/C=C(\C)[C@@H](O)[C@@H](OC)C(=O)[C@H](C)C[C@H](C)/C=C/C=C/C=C/1C [Compound 427] please
### Response 0.3 to 1 nM

### Prompt Repeat with COCCO[C@@H]1C[C@@H]2CC[C@@H](C)[C@@](O)(O2)C(=O)C(=O)N2CCCC[C@H]2C(=O)O[C@H]([C@H](C)C[C@@H]2CC[C@@H](OCCO)[C@H](OC)C2)CC(=O)[C@H](C)/C=C(\C)[C@@H](O)[C@@H](OC)C(=O)[C@H](C)C[C@H](C)/C=C/C=C/C=C/1C [Compound 40]
### Response > 1 nM

====

pKd: −log10 of the molar value.
pKd tested on FKBP12 (Homo sapiens, UniProt P62942): recorded values

### Prompt For the compound CO[C@@H]1C[C@H](C[C@@H](C)[C@@H]2CC(=O)[C@H](C)/C=C(\C)[C@@H](O)[C@@H](OC)C(=O)[C@H](C)C[C@H](C)/C=C/C=C/C=C(\C)[C@H](OC3CC3)C[C@@H]3CC[C@@H](C)[C@@](O)(O3)C(=O)C(=O)N3CCCC[C@H]3C(=O)O2)CC[C@H]1O [Compound 519] , what pKd is on record?
### Response > 9.52

### Prompt Also check COCCO[C@@H]1C[C@@H]2CC[C@@H](C)[C@@](O)(O2)C(=O)C(=O)N2CCCC[C@H]2C(=O)O[C@H]([C@H](C)C[C@@H]2CC[C@@H](OCCCN3CCN(C)CC3)[C@H](OC)C2)CC(=O)[C@H](C)/C=C(\C)[C@@H](O)[C@@H](OC)C(=O)[C@H](C)C[C@H](C)/C=C/C=C/C=C/1C [Compound 32]
### Response 9.00 to 9.52

### Prompt Please do the same for CO[C@@H]1C[C@H](C[C@@H](C)[C@@H]2CC(=O)[C@H](C)/C=C(\C)[C@@H](O)[C@@H](OC)C(=O)[C@H](C)C[C@H](C)/C=C/C=C/C=C(\C)[C@H](OCCCCO)C[C@@H]3CC[C@@H](C)[C@@](O)(O3)C(=O)C(=O)N3CCCC[C@H]3C(=O)O2)CC[C@H]1OCCCN1CCOCC1 [Compound 27] as well.
### Response > 9.52

====

Assay read-out Kd; system under study: FKBP12 (Homo sapiens, UniProt P62942).

### Prompt Param item = CO[C@@H]1C[C@H](C[C@@H](C)[C@@H]2CC(=O)[C@H](C)/C=C(\C)[C@@H](O)[C@@H](OC)C(=O)[C@H](C)C[C@H](C)/C=C/C=C/C=C(\C)[C@@H](OCCCCO)C[C@@H]3CC[C@@H](C)[C@@](O)(O3)C(=O)C(=O)N3CCCC[C@H]3C(=O)O2)CC[C@H]1OCCCN1CCOCC1 [Compound 426] ; retrieve measured Kd.
### Response < 0.3 nM

### Prompt Query CO[C@@H]1C[C@H](C[C@@H](C)[C@@H]2CC(=O)[C@H](C)/C=C(\C)[C@@H](O)[C@@H](OC)C(=O)[C@H](C)C[C@H](C)/C=C/C=C/C=C(\C)[C@H](OC3COC3)C[C@@H]3CC[C@@H](C)[C@@](O)(O3)C(=O)C(=O)N3CCCC[C@H]3C(=O)O2)CC[C@H]1O [Compound 124] next
### Response < 0.3 nM

### Prompt Try this compound too: CO[C@@H]1C[C@H](C[C@@H](C)[C@@H]2CC(=O)[C@H](C)/C=C(\C)[C@@H](O)[C@@H](OC)C(=O)[C@H](C)C[C@H](C)/C=C/C=C/C=C(\C)[C@@H](OCC3COC3)C[C@@H]3CC[C@@H](C)[C@@](O)(O3)C(=O)C(=O)N3CCCC[C@H]3C(=O)O2)CC[C@H]1O [Compound 521]
### Response < 0.3 nM

### Prompt Same for CO[C@@H]1C[C@H](C[C@@H](C)[C@@H]2CC(=O)[C@H](C)/C=C(\C)[C@@H](O)[C@@H](OC)C(=O)[C@H](C)C[C@H](C)/C=C/C=C/C=C(\C)[C@H](OCCOCCO)C[C@@H]3CC[C@@H](C)[C@@](O)(O3)C(=O)C(=O)N3CCCC[C@H]3C(=O)O2)CC[C@H]1O [Compound 125]
### Response < 0.3 nM

### Prompt Field entry: CO[C@@H]1C[C@H](C[C@@H](C)[C@@H]2CC(=O)[C@H](C)/C=C(\C)[C@@H](O)[C@@H](OC)C(=O)[C@H](C)C[C@H](C)/C=C/C=C/C=C(\C)[C@H](OC3CC3)C[C@@H]3CC[C@@H](C)[C@@](O)(O3)C(=O)C(=O)N3CCCC[C@H]3C(=O)O2)CC[C@H]1OCCO [Compound 128]
### Response > 1 nM

### Prompt Now the compound COCCO[C@H]1C[C@@H]2CC[C@@H](C)[C@@](O)(O2)C(=O)C(=O)N2CCCCC2C(=O)O[C@H]([C@H](C)C[C@@H]2CC[C@@H](OCCCN3CCN(C)CC3)[C@H](OC)C2)CC(=O)[C@H](C)/C=C(\C)[C@@H](O)[C@@H](OC)C(=O)[C@H](C)C[C@H](C)/C=C/C=C/C=C/1C (relative stereo) [Compound 431]
### Response 0.3 to 1 nM

### Prompt Param item: CO[C@@H]1C[C@H](C[C@@H](C)[C@@H]2CC(=O)[C@H](C)/C=C(\C)[C@@H](O)[C@@H](OC)C(=O)[C@H](C)C[C@H](C)/C=C/C=C/C=C(\C)[C@H](OCC3COC3)C[C@@H]3CC[C@@H](C)[C@@](O)(O3)C(=O)C(=O)N3CCCC[C@H]3C(=O)O2)CC[C@H]1O [Compound 122]
### Response 0.3 to 1 nM

### Prompt Okay, and CO[C@@H]1C[C@H](C[C@@H](C)[C@@H]2CC(=O)[C@H](C)/C=C(\C)[C@@H](O)[C@@H](OC)C(=O)[C@H](C)C[C@H](C)/C=C/C=C/C=C(\C)[C@@H](OC3CC3)C[C@@H]3CC[C@@H](C)[C@@](O)(O3)C(=O)C(=O)N3CCCC[C@H]3C(=O)O2)CC[C@H]1OCCO [Compound 527] ?
### Response 0.3 to 1 nM
